These data points were gathered from paper PMC7198766.

# System: ligated 6th instar Indian stick insects (Carausius morosus)
# test.protocol: Carbohydrate-mobilization (hypertrehalosemic) in vivo assay
# recorded.conditions: 90 min after injection of 20 pmol peptide in 10 μl; neck-ligated 6th instar nymphs
Overview of recorded Hemolymph carbohydrates, 90 min for various substances
Give the value in mg/mL but do not write mg/mL after it.

Use these answered entries as a reference point.
INSERT INTO assay_data (substance, endpoint_value) VALUES
  ('pGlu-Leu-Thr-Phe-Thr-Pro-Asn-Trp-Gly-Thr amide [Carmo-HrTH-II, reference compound]', 14.9),
  ('pGlu-Leu-Thr-Phe-Thr-Pro-Asn-Trp-Gly-Ser amide [Phyle-CC, naturally-occurring AKH decapeptide bioanalog, reference compound]', 14.1),
  ('pGlu-Leu-Thr-Phe-Thr-Pro-Asn-Trp-Ala-Thr amide [Ala^9-Carmo-HrTH-II]', 11.0);

Pending substance:
Item pGlu-Leu-Thr-Phe-Thr-Pro-Asn-Ala-Gly-Thr amide [Ala^8-Carmo-HrTH-II] has what recorded Hemolymph carbohydrates, 90 min? 8.3

###

# Test system: ligated 6th instar Indian stick insects (Carausius morosus)
# test.protocol: Carbohydrate-mobilization (hypertrehalosemic) in vivo assay
# recorded.conditions: 90 min after injection of 20 pmol peptide in 10 μl; neck-ligated 6th instar nymphs
Overview of recorded Hemolymph carbohydrates, 90 min for various substances
Give the value in mg/mL but do not write mg/mL after it.

Use these answered entries as a reference point.
INSERT INTO measurements (substance, reported_property, endpoint_value) VALUES
  ('pGlu-Leu-Ala-Phe-Thr-Pro-Asn-Trp-Gly-Thr amide [Ala^3-Carmo-HrTH-II]', 'Hemolymph carbohydrates, 90 min', 11.1),
  ('pGlu-Leu-Asn-Phe-Thr-Pro-Asn-Trp-Gly-Ser amide [Phymo-AKH, naturally-occurring AKH decapeptide bioanalog, reference compound]', 'Hemolymph carbohydrates, 90 min', 10.5);

GET /values?readout=Hemolymph carbohydrates, 90 min&system=ligated 6th instar Indian stick insects (Carausius morosus)&item= pGlu-Leu-Thr-Phe-Ala-Pro-Asn-Trp-Gly-Thr amide [Ala^5-Carmo-HrTH-II] 10.1

GET /values?readout=Hemolymph carbohydrates, 90 min&system=ligated 6th instar Indian stick insects (Carausius morosus)&item= pGlu-Leu-Thr-Phe-Thr-Pro-Asn-Trp amide [Peram-CAH-II, naturally-occurring AKH octapeptide bioanalog, reference compound] 11.0

GET /values?readout=Hemolymph carbohydrates, 90 min&system=ligated 6th instar Indian stick insects (Carausius morosus)&item= pGlu-Leu-Thr-Phe-Thr-Pro-Ser-Trp amide [Aedae-AKH, naturally-occurring AKH octapeptide bioanalog, reference compound] 8.8

GET /values?readout=Hemolymph carbohydrates, 90 min&system=ligated 6th instar Indian stick insects (Carausius morosus)&item= pGlu-Leu-Thr-Phe-Thr-Pro-Asn-Trp-Gly-Ala amide [Ala^10-Carmo-HrTH-II] 12.4

###

# Tested on: ligated 6th instar Indian stick insects (Carausius morosus)
# test.protocol: Carbohydrate-mobilization (hypertrehalosemic) in vivo assay
# recorded.conditions: before injection (0 min), 2 h after neck ligation; group later given 20 pmol peptide in 10 μl; 6th instar nymphs
reported.property: Hemolymph carbohydrates, 0 min (mg/mL)
Give the value in mg/mL but do not write mg/mL after it.

Use these answered entries as a reference point.
INSERT INTO assay_data (substance, target_or_system, unit_string, endpoint_value) VALUES
  ('pGlu-Leu-Thr-Phe-Thr-Pro-Ser-Trp amide [Aedae-AKH, naturally-occurring AKH octapeptide bioanalog, reference compound]', 'ligated 6th instar Indian stick insects (Carausius morosus)', 'mg/mL', 8.1),
  ('pGlu-Leu-Thr-Phe-Thr-Pro-Asn-Trp-Ala-Thr amide [Ala^9-Carmo-HrTH-II]', 'ligated 6th instar Indian stick insects (Carausius morosus)', 'mg/mL', 9.5);

Item pGlu-Leu-Asn-Phe-Thr-Pro-Asn-Trp amide [Pyrap-AKH, naturally-occurring AKH octapeptide bioanalog, reference compound] has what recorded Hemolymph carbohydrates, 0 min? 8.7

###

# System: ligated 6th instar Indian stick insects (Carausius morosus)
# test.protocol: Carbohydrate-mobilization (hypertrehalosemic) in vivo assay
# recorded.conditions: before injection (0 min), 2 h after neck ligation; group later given 20 pmol peptide in 10 μl; 6th instar nymphs
reported.property: Hemolymph carbohydrates, 0 min (mg/mL)
Give the value in mg/mL but do not write mg/mL after it.

Use these answered entries as a reference point.
INSERT INTO measurements (substance, reported_property, unit_string, endpoint_value) VALUES
  ('pGlu-Leu-Thr-Phe-Thr-Ala-Asn-Trp-Gly-Thr amide [Ala^6-Carmo-HrTH-II]', 'Hemolymph carbohydrates, 0 min', 'mg/mL', 9.5),
  ('pGlu-Leu-Asn-Phe-Thr-Pro-Asn-Trp-Gly-Thr amide [Locmi-AKH-I, naturally-occurring AKH decapeptide bioanalog, reference compound]', 'Hemolymph carbohydrates, 0 min', 'mg/mL', 8.9),
  ('pGlu-Leu-Thr-Phe-Thr-Pro-Asn-Trp*-Gly-Thr amide [Carmo-HrTH-I, endogenous hormone isolated from C. morosus CC; Trp^8 C-mannosylated, reference compound]', 'Hemolymph carbohydrates, 0 min', 'mg/mL', 8.0),
  ('pGlu-Leu-Thr-Phe-Thr-Pro-Asn-Trp-Gly-Ala amide [Ala^10-Carmo-HrTH-II]', 'Hemolymph carbohydrates, 0 min', 'mg/mL', 9.9),
  ('pGlu-Leu-Thr-Phe-Thr-Pro-Asn-Trp-Gly-Ser amide [Phyle-CC, naturally-occurring AKH decapeptide bioanalog, reference compound]', 'Hemolymph carbohydrates, 0 min', 'mg/mL', 8.2),
  ('pGlu-Leu-Ala-Phe-Thr-Pro-Asn-Trp-Gly-Thr amide [Ala^3-Carmo-HrTH-II]', 'Hemolymph carbohydrates, 0 min', 'mg/mL', 10.3),
  ('Leu-Thr-Phe-Thr-Pro-Asn-Trp-Gly-Thr amide', 'Hemolymph carbohydrates, 0 min', 'mg/mL', 8.8),
  ('pGlu-Leu-Thr-Phe-Thr-Pro-Asn-Ala-Gly-Thr amide [Ala^8-Carmo-HrTH-II]', 'Hemolymph carbohydrates, 0 min', 'mg/mL', 8.5);

Item pGlu-Leu-Thr-Phe-Ala-Pro-Asn-Trp-Gly-Thr amide [Ala^5-Carmo-HrTH-II] has what recorded Hemolymph carbohydrates, 0 min? 10.2

Item pGlu-Leu-Thr-Phe-Thr-Pro-Asn-Trp-Gly-Thr OH [Carmo-HrTH-II: free C-terminus] has what recorded Hemolymph carbohydrates, 0 min? 8.8

###

# Tested on: heart of neck-ligated Carausius morosus
# test.protocol: Semi-exposed heart bioassay (heart beat rate)
# Assay type: in vivo
# recorded.conditions: 20 pmol peptide in 150 μl; heart rate increase relative to Carmo-HrTH-II = 100; NS = no significant increase
Marks after values point to notes of the source that are not given here.
reported.property: % Activity relative to the effect of Carmo-HrTH-II (myotropic)

GET /values?readout=% Activity relative to the effect of Carmo-HrTH-II (myotropic)&system=heart of neck-ligated Carausius morosus&item= pGlu-Val-Asn-Phe-Thr-Pro-Asn-Trp-Gly-Thr amide [Rommi-CC, naturally-occurring AKH decapeptide bioanalog, reference compound] 150^b %

GET /values?readout=% Activity relative to the effect of Carmo-HrTH-II (myotropic)&system=heart of neck-ligated Carausius morosus&item= pGlu-Leu-Thr-Phe-Thr-Pro-Asn-Trp-Gly-Ser amide [Phyle-CC, naturally-occurring AKH decapeptide bioanalog, reference compound] 67^b %

GET /values?readout=% Activity relative to the effect of Carmo-HrTH-II (myotropic)&system=heart of neck-ligated Carausius morosus&item= pGlu-Leu-Thr-Phe-Thr-Pro-Asn-Trp*-Gly-Thr amide [Carmo-HrTH-I, endogenous hormone isolated from C. morosus CC; Trp^8 C-mannosylated, reference compound] 108^b %

###

# Test system: heart of neck-ligated Carausius morosus
# test.protocol: Semi-exposed heart bioassay (heart beat rate)
# Type: in vivo
# recorded.conditions: in saline before application; neck-ligated stick insects, semi-exposed heart
reported.property: Heart rate, Pre-application (beats min^−1)
Give the value in beats min^−1 but do not write beats min^−1 after it.

INSERT INTO measurements (substance, unit_string, endpoint_value) VALUES
  ('[N-Ac]Ala-Leu-Thr-Phe-Thr-Pro-Asn-Trp-Gly-Thr amide [Carmo-HrTH-II: [N-Ac]Ala^1]', 'beats min^−1', 39),
  ('pGlu-Leu-Thr-Phe-Thr-Pro-Ala-Trp-Gly-Thr amide [Ala^7-Carmo-HrTH-II]', 'beats min^−1', 39),
  ('Leu-Thr-Phe-Thr-Pro-Asn-Trp-Gly-Thr amide', 'beats min^−1', 39);

Item pGlu-Leu-Thr-Phe-Thr-Pro-Asn-Trp-Gly-Ala amide [Ala^10-Carmo-HrTH-II] has what recorded Heart rate, Pre-application? 41

Item pGlu-Leu-Asn-Phe-Thr-Pro-Asn-Trp-Gly-Thr amide [Locmi-AKH-I, naturally-occurring AKH decapeptide bioanalog, reference compound] has what recorded Heart rate, Pre-application? 40

Item pGlu-Val-Asn-Phe-Thr-Pro-Asn-Trp-Gly-Thr amide [Rommi-CC, naturally-occurring AKH decapeptide bioanalog, reference compound] has what recorded Heart rate, Pre-application? 39

Item pGlu-Leu-Thr-Phe-Thr-Pro-Asn-Trp-Ala-Thr amide [Ala^9-Carmo-HrTH-II] has what recorded Heart rate, Pre-application? 39

Item pGlu-Leu-Thr-Phe-Ala-Pro-Asn-Trp-Gly-Thr amide [Ala^5-Carmo-HrTH-II] has what recorded Heart rate, Pre-application? 39

Item pGlu-Leu-Thr-Ala-Thr-Pro-Asn-Trp-Gly-Thr amide [Ala^4-Carmo-HrTH-II] has what recorded Heart rate, Pre-application? 40

Item pGlu-Leu-Asn-Phe-Thr-Pro-Asn-Trp amide [Pyrap-AKH, naturally-occurring AKH octapeptide bioanalog, reference compound] has what recorded Heart rate, Pre-application? 39

Item pGlu-Leu-Thr-Phe-Thr-Pro-Asn-Trp-Gly-Thr OH [Carmo-HrTH-II: free C-terminus] has what recorded Heart rate, Pre-application? 40
